target: serotonin transporter (SERT) (Homo sapiens); construct: expressed in transfected cells; host or cells: HEK-293; assay: Serotonin reuptake inhibition, [3H]-5-HT, HEK-293 cells transfected with 5-HT transporter cDNA; format: cell-based; conditions: compound 1 μM; [3H]-5-HT; relative to control without compound = 100%; lower value = more inhibition
Sequence (P31645 whole entry, species assumed): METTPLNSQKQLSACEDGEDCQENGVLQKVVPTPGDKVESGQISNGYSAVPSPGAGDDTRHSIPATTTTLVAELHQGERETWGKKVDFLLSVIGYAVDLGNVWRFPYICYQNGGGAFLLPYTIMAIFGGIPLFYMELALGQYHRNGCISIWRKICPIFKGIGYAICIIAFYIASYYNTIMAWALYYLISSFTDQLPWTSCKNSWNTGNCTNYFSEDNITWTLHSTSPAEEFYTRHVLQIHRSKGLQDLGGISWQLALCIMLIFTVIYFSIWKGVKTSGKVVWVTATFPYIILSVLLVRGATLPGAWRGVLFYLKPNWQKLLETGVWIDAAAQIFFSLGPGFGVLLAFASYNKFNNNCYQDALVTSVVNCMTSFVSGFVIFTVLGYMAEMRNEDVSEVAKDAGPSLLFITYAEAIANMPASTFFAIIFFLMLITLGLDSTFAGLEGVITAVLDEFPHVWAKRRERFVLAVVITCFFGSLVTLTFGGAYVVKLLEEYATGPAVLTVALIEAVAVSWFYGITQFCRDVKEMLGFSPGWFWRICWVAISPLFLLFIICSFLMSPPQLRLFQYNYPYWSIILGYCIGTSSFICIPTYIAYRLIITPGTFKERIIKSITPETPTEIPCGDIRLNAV
outcome measure: Triple reuptake inhibition (Ratio %) SERT

- compound: "O=C(CCN1CCCCC1)Nc1ccc(S(=O)(=O)NCCCN2CCC(Cc3ccccc3)CC2)cc1 [Example 17]"
  units text: "%"
  data value: 9.28
- compound: "O=S(=O)(NCCN1CCC(Cc2ccccc2)CC1)c1ccc2ccccc2c1 [Example 38]"
  units text: "%"
  data value: 34.20
- compound: "O=S(=O)(NCCN1CCC(c2ccccc2)CC1)c1ccc2ccccc2c1 [Example 42]"
  units text: "%"
  data value: 64.15
- compound: "O=S(=O)(NCCN1CCC(Cc2ccccc2)CC1)c1ccc(F)cc1 [Example 2]"
  units text: "%"
  data value: 100.21
- compound: "O=S(=O)(NCCCN1CCC(Cc2ccccc2)CC1)c1ccc(-c2ccc(F)cc2)cc1 [Example 58]"
  units text: "%"
  data value: 50.76
- compound: "CCCCOc1ccc(S(=O)(=O)NCCN2CCC(c3c[nH]c4ccc(OC)cc34)CC2)cc1 [Example 8]"
  units text: "%"
  data value: 98.57
- compound: "O=S(=O)(NCCCN1CCC(Cc2ccccc2)CC1)c1ccc2ccccc2n1 [Example 57]"
  units text: "%"
  data value: 53.66
- compound: "O=S(=O)(NCCCN1CCC(CCCc2ccccc2)CC1)c1ccc(-c2ccc(F)cc2)cc1 [Example 74]"
  units text: "%"
  data value: 61.48
- compound: "CCCCNc1ccc(S(=O)(=O)NCCCN2CCC(Cc3ccccc3)CC2)cc1 [Example 16]"
  units text: "%"
  data value: 74.25

###

target: dopamine transporter (DAT) (Homo sapiens); construct: expressed in transfected cells; host or cells: HEK-293; assay: Dopamine reuptake inhibition, [3H]-DA, HEK-293 cells transfected with dopamine transporter cDNA; format: cell-based; conditions: compound 1 μM; 20-30 nM [3H]-DA; relative to control without compound = 100%; lower value = more inhibition
Sequence (Q01959 whole entry, species assumed): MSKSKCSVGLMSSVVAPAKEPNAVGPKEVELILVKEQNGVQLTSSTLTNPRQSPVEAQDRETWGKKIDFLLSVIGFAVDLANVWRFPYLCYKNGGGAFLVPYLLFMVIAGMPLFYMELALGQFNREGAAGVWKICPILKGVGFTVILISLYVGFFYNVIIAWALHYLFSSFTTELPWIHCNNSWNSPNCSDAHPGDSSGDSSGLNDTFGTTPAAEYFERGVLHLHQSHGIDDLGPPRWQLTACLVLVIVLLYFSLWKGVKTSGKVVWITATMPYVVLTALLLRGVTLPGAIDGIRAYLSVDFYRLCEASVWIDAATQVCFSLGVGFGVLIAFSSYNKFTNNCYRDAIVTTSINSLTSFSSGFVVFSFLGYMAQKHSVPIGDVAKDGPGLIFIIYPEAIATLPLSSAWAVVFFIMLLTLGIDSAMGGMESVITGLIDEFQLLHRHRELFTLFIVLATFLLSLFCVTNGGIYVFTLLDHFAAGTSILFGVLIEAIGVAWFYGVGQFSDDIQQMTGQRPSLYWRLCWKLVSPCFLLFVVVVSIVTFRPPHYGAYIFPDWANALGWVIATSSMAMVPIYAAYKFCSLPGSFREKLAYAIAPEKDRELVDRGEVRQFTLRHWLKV
Triple reuptake inhibition (Ratio %) DAT by entry:

- molecule: "O=S(=O)(NCCCN1CCN(c2ccc(Cl)cc2)CC1)c1cccc2ccccc12 [Example 71]"
  Triple reuptake inhibition (Ratio %) DAT: "68.53%"
- molecule: "COc1ccc(S(=O)(=O)NCCCN2CCC(Cc3ccccc3)CC2)cc1 [Example 14]"
  Triple reuptake inhibition (Ratio %) DAT: "39.90%"
- molecule: "CCCCOc1ccc(S(=O)(=O)NCCCN2CCC(Cc3ccccc3)CC2)cc1 [Example 10]"
  Triple reuptake inhibition (Ratio %) DAT: "41.80%"
- molecule: "O=S(=O)(NCCN1CCN(c2ccc(Cl)cc2)CC1)c1ccc2ccccc2c1 [Example 50]"
  Triple reuptake inhibition (Ratio %) DAT: "86.50%"
- molecule: "CCCCOc1ccc(S(=O)(=O)NCCCN2CCC(Cc3ccc(C)cc3)CC2)cc1 [Example 29]"
  Triple reuptake inhibition (Ratio %) DAT: "89.50%"
- molecule: "Cc1ccc(-c2ccc(S(=O)(=O)NCCCN3CCC(Cc4ccccc4)CC3)cc2)cc1 [Example 60]"
  Triple reuptake inhibition (Ratio %) DAT: "9.15%"
- molecule: "O=S(=O)(NCCCN1CCC(c2ccccc2)CC1)c1ccc2ccccc2n1 [Example 65]"
  Triple reuptake inhibition (Ratio %) DAT: "89.88%"
- molecule: "O=S(=O)(NCCCN1CCC(CCCc2ccccc2)CC1)c1ccc(-c2ccccc2)cc1 [Example 75]"
  Triple reuptake inhibition (Ratio %) DAT: "76.23%"
- molecule: "O=S(=O)(NCCN1CCC(Cc2ccccc2)CC1)c1cc2ccccc2[nH]1 [Example 36]"
  Triple reuptake inhibition (Ratio %) DAT: "30.48%"
- molecule: "O=S(=O)(NCCCN1CCC(Cc2ccccc2)CC1)c1ccc(Oc2ccccc2)cc1 [Example 13]"
  Triple reuptake inhibition (Ratio %) DAT: "25.55%"
- molecule: "O=S(=O)(NCCN1CCC(c2ccccc2)CC1)c1ccc2ccccc2n1 [Example 45]"
  Triple reuptake inhibition (Ratio %) DAT: "89.88%"
- molecule: "CCCCOc1ccc(S(=O)(=O)NCCCN2CCN(c3cccc(C(F)(F)F)c3)CC2)cc1 [Example 26]"
  Triple reuptake inhibition (Ratio %) DAT: "97.83%"
- molecule: "CCCCOc1ccc(S(=O)(=O)NCCCN2CCN(Cc3ccccc3)CC2)cc1 [Example 27]"
  Triple reuptake inhibition (Ratio %) DAT: "88.17%"
- molecule: "CCCCOc1ccc(S(=O)(=O)NCCCN2CCC(c3c[nH]c4ccccc34)CC2)cc1 [Example 11]"
  Triple reuptake inhibition (Ratio %) DAT: "73.16%"
